molecular target: Opioid receptor (Mus musculus) (UniProt P42866+P32300+P33534); assay: Inhibition of [3H]dihydromorphine binding to mouse brain membranes as percentage of Opioid receptor occupancy
Sequence (P32300 whole entry, looked up): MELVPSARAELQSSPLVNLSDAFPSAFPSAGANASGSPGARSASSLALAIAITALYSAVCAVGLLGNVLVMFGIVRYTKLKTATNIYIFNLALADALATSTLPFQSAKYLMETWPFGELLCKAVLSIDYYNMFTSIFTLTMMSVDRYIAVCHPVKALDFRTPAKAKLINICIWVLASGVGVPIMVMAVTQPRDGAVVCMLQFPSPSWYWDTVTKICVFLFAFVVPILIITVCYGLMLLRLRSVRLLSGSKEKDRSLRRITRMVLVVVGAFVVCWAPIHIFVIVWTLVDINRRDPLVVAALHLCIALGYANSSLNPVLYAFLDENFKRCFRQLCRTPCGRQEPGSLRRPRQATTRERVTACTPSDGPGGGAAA
Sequence (P33534 whole entry, looked up): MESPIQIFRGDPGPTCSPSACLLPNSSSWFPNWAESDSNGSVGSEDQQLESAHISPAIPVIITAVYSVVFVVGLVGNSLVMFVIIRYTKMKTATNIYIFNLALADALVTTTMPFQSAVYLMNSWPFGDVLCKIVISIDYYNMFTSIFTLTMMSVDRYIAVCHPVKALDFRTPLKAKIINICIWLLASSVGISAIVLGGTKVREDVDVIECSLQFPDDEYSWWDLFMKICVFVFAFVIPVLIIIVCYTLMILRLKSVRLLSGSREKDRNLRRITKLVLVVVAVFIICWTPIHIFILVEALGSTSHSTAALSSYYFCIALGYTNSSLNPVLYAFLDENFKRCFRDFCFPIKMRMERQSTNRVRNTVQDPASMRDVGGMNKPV
Sequence (P42866 whole entry, looked up): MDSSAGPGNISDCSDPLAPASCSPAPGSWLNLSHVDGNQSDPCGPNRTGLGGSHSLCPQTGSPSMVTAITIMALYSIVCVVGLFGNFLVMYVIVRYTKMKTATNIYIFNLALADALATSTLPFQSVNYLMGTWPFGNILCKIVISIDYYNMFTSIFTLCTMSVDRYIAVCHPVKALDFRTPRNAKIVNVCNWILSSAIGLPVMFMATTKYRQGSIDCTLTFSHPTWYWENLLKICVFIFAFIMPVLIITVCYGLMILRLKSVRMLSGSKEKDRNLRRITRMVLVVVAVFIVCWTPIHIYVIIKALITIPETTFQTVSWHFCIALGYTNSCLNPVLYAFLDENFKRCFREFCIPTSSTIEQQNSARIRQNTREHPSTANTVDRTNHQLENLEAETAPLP
Note to self: use fulfilled only for Receptor occupancy readings below 50%; a reading exactly at 50% still gets not fulfilled.

Smiles Entry	Group
CCCCCCCCCCCCCCCC(=O)NN[C@@H]1CC[C@@]2(O)[C@H]3Cc4ccc(O)c5c4[C@@]2(CCN3CC2CC2)[C@H]1O5	fulfilled
CCCCCCCC/C=C/CCCCCCCC(=O)N[C@@H]1CC[C@@]2(O)[C@H]3Cc4ccc(O)c5c4[C@@]2(CCN3CC2CC2)[C@H]1O5	not fulfilled
CC/C=C/C/C=C/C/C=C/CCCCCCCC(=O)NN[C@@H]1CC[C@@]2(O)[C@H]3Cc4ccc(O)c5c4[C@@]2(CCN3CC2CC2)[C@H]1O5	fulfilled
CCCCCCCC/C=C/CCCCCCCC(=O)N[C@H]1CC[C@@]2(O)[C@H]3Cc4ccc(O)c5c4[C@@]2(CCN3CC2CC2)[C@H]1O5	not fulfilled
CCCCCCCCCCCCCCCCCC(=O)N[C@H]1CC[C@@]2(O)[C@H]3Cc4ccc(O)c5c4[C@@]2(CCN3CC2CC2)[C@H]1O5	fulfilled

====

The molecules listed here are annotated with their Receptor occupancy.
target: Opioid receptor (Mus musculus) (UniProt P42866+P32300+P33534); test: Binding to mouse brain membranes expressed as percentage of Opioid receptors occupancy determined from difference in specific binding of [3H]dihydromorphine obtained after 10 wash procedures; details: Membrane

Smiles Entry	System Tested	Receptor occupancy
CCCCCCCCCCCCCCCC(=O)N[C@@H]1CC[C@@]2(O)[C@H]3Cc4ccc(O)c5c4[C@@]2(CCN3CC2CC2)[C@H]1O5	Opioid receptor (Mus musculus) (UniProt P42866+P32300+P33534)	2%
CCCCCCCCCCCCCCCCCC(=O)N[C@H]1CC[C@@]2(O)[C@H]3Cc4ccc(O)c5c4[C@@]2(CCN3CC2CC2)[C@H]1O5	Opioid receptor (Mus musculus) (UniProt P42866+P32300+P33534)	6%
CCCCCCCCCCCCCCCCCC(=O)N[C@@H]1CC[C@@]2(O)[C@H]3Cc4ccc(O)c5c4[C@@]2(CCN3CC2CC2)[C@H]1O5	Opioid receptor (Mus musculus) (UniProt P42866+P32300+P33534)	2%
CC/C=C/C/C=C/C/C=C/CCCCCCCC(=O)NN[C@@H]1CC[C@@]2(O)[C@H]3Cc4ccc(O)c5c4[C@@]2(CCN3CC2CC2)[C@H]1O5	Opioid receptor (Mus musculus) (UniProt P42866+P32300+P33534)	38%

====

target: Opioid receptor (Mus musculus) (UniProt P42866+P32300+P33534); assay: Binding to mouse brain membranes expressed as percentage of Opioid receptors occupancy determined from difference in specific binding of [3H]dihydromorphine obtained prewashed.; settings: Membrane
The compounds listed here are annotated with their Receptor occupancy.
Reported Property: Receptor occupancy (%)

Smiles Entry	Obs Value
CC/C=C/C/C=C/C/C=C/CCCCCCCC(=O)N[C@H]1CC[C@@]2(O)[C@H]3Cc4ccc(O)c5c4[C@@]2(CCN3CC2CC2)[C@H]1O5	69
CCCCCCCCCCCCCCCCCC(=O)N[C@H]1CC[C@@]2(O)[C@H]3Cc4ccc(O)c5c4[C@@]2(CCN3CC2CC2)[C@H]1O5	18
CC/C=C/C/C=C/C/C=C/CCCCCCCC(=O)N[C@@H]1CC[C@@]2(O)[C@H]3Cc4ccc(O)c5c4[C@@]2(CCN3CC2CC2)[C@H]1O5	85
CCCCCCCCCCCCCCCC(=O)N[C@@H]1CC[C@@]2(O)[C@H]3Cc4ccc(O)c5c4[C@@]2(CCN3CC2CC2)[C@H]1O5	38
CCCCC/C=C/C/C=C/CCCCCCCC(=O)N[C@@H]1CC[C@@]2(O)[C@H]3Cc4ccc(O)c5c4[C@@]2(CCN3CC2CC2)[C@H]1O5	84
CCCCCCCC/C=C/CCCCCCCC(=O)N[C@@H]1CC[C@@]2(O)[C@H]3Cc4ccc(O)c5c4[C@@]2(CCN3CC2CC2)[C@H]1O5	64
CCCCCCCC/C=C/CCCCCCCC(=O)N[C@H]1CC[C@@]2(O)[C@H]3Cc4ccc(O)c5c4[C@@]2(CCN3CC2CC2)[C@H]1O5	42
CCCCCCCCCCCCCCCCCC(=O)N[C@@H]1CC[C@@]2(O)[C@H]3Cc4ccc(O)c5c4[C@@]2(CCN3CC2CC2)[C@H]1O5	34
CCCCC/C=C/C/C=C/CCCCCCCC(=O)N[C@H]1CC[C@@]2(O)[C@H]3Cc4ccc(O)c5c4[C@@]2(CCN3CC2CC2)[C@H]1O5	73
